Cited source: PubChem BioAssay (NCI)

Tested on: KM20L2 colon
Experiment: NCI tumour cell line growth inhibition, 48 h
Form field: TGI (one value per entry).
A number alone suffices; assume µM.

Known TGI results, listed for orientation:
CN(C)CCC(/C=C/c1ccccc1)=N\Nc1ccccc1: 0.655
COc1c(O)c2c(=O)cc3c4c5c(cc(=O)c6c(O)c(OC)c(CC(C)O)c(c(c1CC(C)O)c24)c65)OCO3 (stereo not given): 1.69
O=C1N=C2Sc3ccc4ccccc4c3N2C1=O: 64.4

The record that follows has no TGI shown yet.
# return recorded TGI for input CC1=Cc2cccc(C)c2C(=O)C1=O
35.5

* * *

System: T-47D breast
Assay: NCI tumour cell line growth inhibition, 48 h; in the data active = GI50 below about 0.43 µM; inactive = the rest
One label from this list, please: True for active, False for inactive

CCn1c(O)c(/C=N/NC(=O)C(C)c2ccc(CC(C)C)cc2)sc1=S (stereo not drawn): False
CNCCOC(=O)/C=C1\CC[C@H]2[C@@H]([C@@H](O)C(=O)[C@@H]3[C@]2(C)CC[C@H](O)[C@]3(C)C(=O)OC)[C@H]1C: True

Consider the record given below.
What was the test verdict on CCOC(=O)Nc1cc2c(c(N)n1)N=C(c1ccccc1)CO2 ?
False
